Measured z-score of individual entries
Test name: budding yeast growth modifiers under rapamycin – strain BY4716, OD600, 96 h, primary screen (AID 1091); also: test concentration not given here
Condition details: S. cerevisiae BY4716 + rapamycin, higher = more signal, called active from +8 up or from −8 down
// no unit, no text: just the number

Worked set:
NC(=O)N1C(=O)C2C(C1=O)C1C=C(CCCO)C2C(c2ccc(CN3CCCC3)cc2)N1Cc1cc2c(cc1Br)OCO2 (centres undefined); -0.665
COc1cc(CO)cc(I)c1O[C@H]1C=C(C(=O)NCCO)C[C@@H](NC2CCCCCC2)[C@@H]1O; -0.397
O=C1c2ccccc2[C@@]2(Cc3ccccc3N(Cc3ccccc3)C2=O)[C@H](c2ccc(CO)cc2)N1Cc1ccccc1Cl; -2.35
COC(=O)[C@@]1(Cc2ccc(F)cc2)[C@H]2c3cc(C(=O)N4CCCC4)n(CCc4ccccn4)c3C[C@H]2CN1C(=O)c1ccccc1; 0.414
COc1ccc(C(O)C2C=CC3C(=O)NC(=O)C3N2Nc2ccc(Cl)cc2Cl)c2ccccc12 (centres undefined); 0.126
COCCOC(=O)N1C(=O)[C@@]2(c3cc(C#CCC(C(=O)OC)C(=O)OC)ccc31)[C@H](C(N)=O)[C@H]1C(=O)O[C@H](c3ccccc3)[C@H](c3ccccc3)N1[C@@H]2c1ccc(O)cc1; 7.43

Request: Can you share its z-score? I mean this compound: `COCCOC(=O)N1C(=O)[C@@]2(c3cc(C#CCC(C(=O)OC)C(=O)OC)ccc31)[C@H](C(=O)Nc1nc3ccccc3s1)[C@H]1C(=O)O[C@H](c3ccccc3)[C@H](c3ccccc3)N1[C@@H]2c1ccc(OCCO)cc1`
Response: 2.14

Request: Can you share its z-score? I mean this compound: `C=CCNC(=O)[C@@H]1[C@H]2C(=O)O[C@H](c3ccccc3)[C@H](c3ccccc3)N2[C@H](c2ccc(OCCO)cc2)[C@@]12C(=O)Nc1ccc(C#CC3(O)CCCCCC3)cc12`
Response: 4.71

Request: Can you share its z-score? I mean this compound: `O=C(NC1CC1)[C@@H]1c2ccccc2C(=O)N(Cc2cc(C(F)(F)F)cc(C(F)(F)F)c2)[C@H]1c1ccc(CO)cc1`
Response: -0.108
